Provenance of the data: IntAct's records for PubMed 19966800

B1: Cytotoxicity-associated immunodominant antigen (Helicobacter pylori), P55980 (parent)
chain: MTNETIDQTRTPDQTQSQTAFDPQQFINNLQVAFIKVDNVVASFDPDQKPIVDKNDRDNRQAFDGISQLREEYSNKAIKNPTKKNQYFSDFIDKSNDLINKDNLIDVESSTKSFQKFGDQRYQIFTSWVSHQKDPSKINTRSIRNFMENIIQPPIPDDKEKAEFLKSAKQSFAGIIIGNQIRTDQKFMGVFDESLKERQEAEKNGGPTGGDWLDIFLSFIFNKKQSSDVKEAINQEPVPHVQPDIATTTTDIQGLPPEARDLLDERGNFSKFTLGDMEMLDVEGVADIDPNYKFNQLLIHNNALSSVLMGSHNGIEPEKVSLLYAGNGGFGDKHDWNATVGYKDQQGNNVATLINVHMKNGSGLVIAGGEKGINNPSFYLYKEDQLTGSQRALSQEEIRNKVDFMEFLAQNNTKLDNLSEKEKEKFQNEIEDFQKDSKAYLDALGNDRIAFVSKKDTKHSALITEFNNGDLSYTLKDYGKKADKALDREKNVTLQGSLKHDGVMFVDYSNFKYTNASKNPNKGVGATNGVSHLEAGFNKVAVFNLPDLNNLAITSFVRRNLENKLTAKGLSLQEANKLIKDFLSSNKELAGKALNFNKAVAEAKSTGNYDEVKKAQKDLEKSLRKREHLEKEVEKKLESKSGNKNKMEAKAQANSQKDEIFALINKEANRDARAIAYTQNLKGIKRELSDKLEKISKDLKDFSKSFDEFKNGKNKDFSKAEETLKALKGSVKDLGINPEWISKVENLNAALNEFKNGKNKDFSKVTQAKSDLENSVKDVIINQKVTDKVDNLNQAVSVAKAMGDFSRVEQVLADLKNFSKEQLAQQAQKNEDFNTGKNSELYQSVKNSVNKTLVGNGLSGIEATALAKNFSDIKKELNEKFKNFNNNNNGLKNSTEPIYAKVNKKKTGQVASPEEPIYTQVAKKVNAKIDRLNQIASGLGGVGQAAGFPLKRHDKVDDLSKVGLSASPEPIYATIDDLGGPFPLKRHDKVDDLSKVGRSRNQELAQKIDNLNQAVSEAKAGFFGNLEQTIDKLKDSTKKNVMNLYVESAKKVPASLSAKLDNYAINSHTRINSNIQNGAINEKATGMLTQKNPEWLKLVNDKIVAHNVGSVSLSEYDKIGFNQKNMKDYSDSFKFSTKLNNAVKDIKSGFTHFLANAFSTGYYCLARENAEHGIKNVNTKGGFQKS

Variants of: B1
Settings: with mark2_human MARK2, Q7KZI7
Sequence (Q7KZI7 whole entry): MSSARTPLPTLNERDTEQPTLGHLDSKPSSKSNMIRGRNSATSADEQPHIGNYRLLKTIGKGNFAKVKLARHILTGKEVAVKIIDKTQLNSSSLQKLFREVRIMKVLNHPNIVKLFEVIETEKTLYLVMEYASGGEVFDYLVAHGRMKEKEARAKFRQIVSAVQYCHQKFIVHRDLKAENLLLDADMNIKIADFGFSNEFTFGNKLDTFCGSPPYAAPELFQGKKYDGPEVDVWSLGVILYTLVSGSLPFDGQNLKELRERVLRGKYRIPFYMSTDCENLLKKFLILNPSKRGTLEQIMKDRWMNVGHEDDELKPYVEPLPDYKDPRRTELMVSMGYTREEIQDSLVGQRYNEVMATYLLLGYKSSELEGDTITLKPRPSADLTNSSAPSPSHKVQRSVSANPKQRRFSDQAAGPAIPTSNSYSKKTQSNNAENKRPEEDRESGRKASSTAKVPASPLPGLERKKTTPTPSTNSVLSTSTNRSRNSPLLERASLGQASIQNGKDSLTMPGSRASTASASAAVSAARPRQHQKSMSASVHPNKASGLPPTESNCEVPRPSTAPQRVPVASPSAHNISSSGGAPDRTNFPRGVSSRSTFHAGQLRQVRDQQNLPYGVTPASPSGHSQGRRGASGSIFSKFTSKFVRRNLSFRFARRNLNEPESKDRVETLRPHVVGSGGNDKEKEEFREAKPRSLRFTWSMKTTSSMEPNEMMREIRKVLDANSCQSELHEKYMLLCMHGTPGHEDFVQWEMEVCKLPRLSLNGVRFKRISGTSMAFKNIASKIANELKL
value type: effect of a mutation on the interaction

• V956G = disrupting interaction
• L950G = disrupting interaction
• L959G = disrupting interaction
